Attribution: ChEMBL document CHEMBL4229342

- System: Candida albicans
- assay notes: Growth inhibition of Candida albicans ATCC 90028 at 0.0313 ug/ml incubated for 18 hrs at 35 degC by broth microdilution method relative to control
- Type: functional
- assay context: ATCC 90028, 18 h, read-out: GI
measured endpoint: inhibition of growth at 0.0313 µg/mL (%)

compound: COC(C(=O)OC(C)Cn1cnc2c1c(=O)n(C)c(=O)n2C)c1cccc2ccccc12 (stereo unspecified)
unit symbol: %
numeric result: 100
//
compound: CC(Cn1cnc2c1c(=O)n(C)c(=O)n2C)OCc1cn(CCCn2nc3c(Br)c(Br)c(Br)c(Br)c3n2)nn1 (stereo unspecified)
unit symbol: %
numeric result: 99.1
//
compound: CC(Cn1cnc2c1c(=O)n(C)c(=O)n2C)OC(=O)C1c2ccccc2-c2ccccc21 (stereo unspecified)
unit symbol: %
numeric result: 99.8
//
compound: CC(Cn1cnc2c1c(=O)n(C)c(=O)n2C)OC(=O)Nc1ccccc1 (stereo unspecified)
unit symbol: %
numeric result: 100
//
compound: CC(Cn1cnc2c1c(=O)n(C)c(=O)n2C)OC(=O)CC(=O)c1ccccc1 (stereo unspecified)
unit symbol: %
numeric result: 99.2
//
compound: COC(C(=O)OC(C)Cn1cnc2c1c(=O)n(C)c(=O)n2C)c1ccc(C(C)(C)C)cc1 (stereo unspecified)
unit symbol: %
numeric result: 99.8
